target: UniProtKB P27815; format: functional
Sequence (P27815 whole entry): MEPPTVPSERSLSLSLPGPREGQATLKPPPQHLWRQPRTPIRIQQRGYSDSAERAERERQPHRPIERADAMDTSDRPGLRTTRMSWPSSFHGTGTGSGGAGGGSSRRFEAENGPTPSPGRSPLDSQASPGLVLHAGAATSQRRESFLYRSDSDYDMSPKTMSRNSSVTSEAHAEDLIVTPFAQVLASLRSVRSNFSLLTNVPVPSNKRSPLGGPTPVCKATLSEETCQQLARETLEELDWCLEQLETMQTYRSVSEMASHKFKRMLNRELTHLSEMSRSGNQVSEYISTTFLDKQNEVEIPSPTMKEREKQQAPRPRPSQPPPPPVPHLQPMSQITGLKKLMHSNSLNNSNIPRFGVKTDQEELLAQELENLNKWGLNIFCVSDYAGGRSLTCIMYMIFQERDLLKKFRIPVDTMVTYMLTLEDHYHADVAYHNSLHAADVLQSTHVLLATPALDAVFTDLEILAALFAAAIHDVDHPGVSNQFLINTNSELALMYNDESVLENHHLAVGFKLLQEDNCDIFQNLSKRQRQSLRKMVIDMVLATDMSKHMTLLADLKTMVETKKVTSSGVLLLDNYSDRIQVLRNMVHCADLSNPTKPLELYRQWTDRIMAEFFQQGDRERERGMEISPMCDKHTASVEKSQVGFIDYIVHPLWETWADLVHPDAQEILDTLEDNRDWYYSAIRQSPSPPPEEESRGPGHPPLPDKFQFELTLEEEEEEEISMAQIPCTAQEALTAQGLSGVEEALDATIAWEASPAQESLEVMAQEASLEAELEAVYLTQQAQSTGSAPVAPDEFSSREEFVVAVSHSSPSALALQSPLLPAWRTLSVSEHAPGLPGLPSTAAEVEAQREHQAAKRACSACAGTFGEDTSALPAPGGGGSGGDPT
assay.readout: AC50

Lookup: Data request, read-out AC50, for CC(c1ccc(Cl)c(Cl)c1)N1N=C(N)CC1=O (configuration not stated) [MUZOLIMINE]
Found: > 30 µM

Lookup: Item CCn1cc(C(=O)O)c(=O)c2cc(F)c(N3CCNCC3)nc21 [ENOXACIN] has what recorded AC50?
Found: > 30 µM

Lookup: Record request: AC50 value, item Cc1nnc(SCC2=C(C(=O)O)N3C(=O)[C@@H](NC(=O)Cn4cc(Cl)c(=O)c(Cl)c4)[C@H]3SC2)s1 [CEFAZEDONE]
Found: 28.1 µM

Lookup: Query (molecule): CC1(C)O[C@@H]2[C@@H](CO[C@@]3(COS(N)(=O)=O)OC(C)(C)O[C@@H]23)O1 [TOPIRAMATE] ; field requested: AC50
Found: > 30 µM

Lookup: Need AC50 of CCCCCCCCNC(C)C(O)c1ccc(SC(C)C)cc1 (configuration not stated) [SULOCTIDIL] , thanks.
Found: 20.9 µM

Lookup: What AC50 value was documented for this molecule, C[C@@H](O)[C@H]1C(=O)N2C(C(=O)[O-])=C(SC3Cn4cnc[n+]4C3)[C@H](C)[C@H]12 (some centres not stated) [BIAPENEM] ?
Found: > 30 µM

Lookup: So what does the record say about AC50 for CNC(=O)Oc1ccc2c(c1)[C@]1(C)CCN(C)[C@@H]1N2C [PHYSOSTIGMINE] ?
Found: > 30 µM
